Substrate: PET
Experimental Protocol: Proxy for plastic degradation [HPLC-UV]
Measurement Setup: pH 9; 30 °C; 72 h
Using Proxy for plastic degradation as the sorting value, the categories are lower band = under 8 µM, central band = from 8 µM up to 20 µM, upper band = 20 µM and over

Protein | Assigned Class
unnamed (protein) MNFPRASRLMQAAVLGGLMAVSAAATAQTNPYARGPNPTAASLEASAGPFTVRSFTVSRPSGYGAGTVYYPTNAGGTVGAIAIVPGYTARQSSIKWWGPRLASHGFVVITIDTNSTLDQPSSRSSQQMAALRQVASLNGTSSSPIYGKVDTARMGVMGWSMGGGGSLISAANNPSLKAAAGQAPWDSSTNFSSVTVPTLIFACENDSIAPVNSSALPIYDSMSRNAKQFLEINGGSHSCANSGNSNQALIGKKGVAWMKRFMDNDTRYSTFACENPNSTRVSDFRTANCS | lower band
unnamed (protein) MNFPRASRLMQAAVLGGLMAVSAAATAQTNPYARGPNPTAASLEASAGPFTVRSFTVSRPSGYGAGTVYYPTNAGGTVGAIAIVPGYTARQSSIKWWGPRLASHGFVVITIDTNSTLDQPDSRSSQQMAALRQVASLNGTSSSPIYGKVDTARMGVMGWSMGGGGSLISAANNPSLKAAAPQAPWDSSTNFSSVTVPTLIFACENDSIAPVNSSALPIYDSMSRNAKQFLEINGGSHSCANSGNSNQALIGKKGVAWMKRFMDNDTRYSTFACENPNSTRVSDFRTANCS | upper band
unnamed (protein) MNFPRASRLMQAAVLGGLMAVSAAATAQTNPYARGPNPTAASLEASAGPFTVRSFTVSRPSGYGAGTVYYPTNAGGTVGAIAIVPGYTARQSSIKWWGPRLASHGFVVITIDTNSTLDQPDSRSSQQMAALRQVASLNGTSSSPIYGKVDTARMGVMGWSMGGGGSLISAANNPSLKAAAAQAPWHSSTNFSSVTVPTLIFACENDSIAPVNSSALPIYDSMSRNAKQFLEINGGSHSCANSGNSNQALIGKKGVAWMKRFMDNDTRYSTFACENPNSTRVSDFRTANCS | central band
unnamed (protein) MNFPRASRLMQAAVLGGLMAVSAAATAQTNPYARGPNPTAASLEASAGPFTVRSFTVSRPSGYGAGTVYYPTNAGGTVGAIAIVPGYTARQSSIKWWGPRLASHGFVVITIDTNSTLDQPESRSSQQMAALRQVASLNGTSSSPIYGKVDTARMGVMGWSMGGGGSLISAANNPSLKAAAAQAPWHSSTNFSSVTVPTLIFACENDSIAPVNSSALPIYDSMSRNAKQFLEINGGSHSCANSGNSNQALIGKKGVAWMKRFMDNDTRYSTFACENPNSTRVSDFRTANCS | central band
unnamed (protein) MNFPRASRLMQAAVLGGLMAVSAAATAQTNPYARGPNPTAASLEASAGPFTVRSFTVSRPSGYGAGTVYYPTNAGGTVGAIAIVPGYTARQSSIKWWGPRLASHGFVVITIDTNSTLDQPSSRSSQQMAALRQVASLNGTSSSPIYGKVDTARMGVMGWSMGGGGSLISAANNPSLKAAASQAPWDSSTNFSSVTVPTLIFACENDSIAPVNSSALPIYDSMSRNAKQFLEINGGSHSCANSGNSNQALIGKKGVAWMKRFMDNDTRYSTFACENPNSTRVSDFRTANCS | lower band
unnamed (protein) MNFPRASRLMQAAVLGGLMAVSAAATAQTNPYARGPNPTAASLEASAGPFTVRSFTVSRPSGYGAGTVYYPTNAGGTVGAIAIVPGYTARQSSIKWWGPRLASHGFVVITIDTNSTLDQPSSRSSQQMAALRQVASLNGTSSSPIYGKVDTARMGVMGWSMGGGGSLISAANNPSLKAAAPQAPWHSSTNFSSVTVPTLIFACENDSIAPVNSSALPIYDSMSRNAKQFLEINGGSHSCANSGNSNQALIGKKGVAWMKRFMDNDTRYSTFACENPNSTRVSDFRTANCS | central band
unnamed (protein) MNFPRASRLMQAAVLGGLMAVSAAATAQTNPYARGPNPTAASLEASAGPFTVRSFTVSRPSGYGAGTVYYPTNAGGTVGAIAIVPGYTARQSSIKWWGPRLASHGFVVITIDTNSTLDQPDSRSSQQMAALRQVASLNGTSSSPIYGKVDTARMGVMGWSMGGGGSLISAANNPSLKAAAPQAPWHSSTNFSSVTVPTLIFACENDSIAPVNSSALPIYDSMSRNAKQFLEINGGSHSCANSGNSNQALIGKKGVAWMKRFMDNDTRYSTFACENPNSTRVSDFRTANCS | upper band
unnamed (protein) MNFPRASRLMQAAVLGGLMAVSAAATAQTNPYARGPNPTAASLEASAGPFTVRSFTVSRPSGYGAGTVYYPTNAGGTVGAIAIVPGYTARQSSIKWWGPRLASHGFVVITIDTNSTLDQPDSRSSQQMAALRQVASLNGTSSSPIYGKVDTARMGVMGWSMGGGGSLISAANNPSLKAAAPQAPWHSSTNFSSVTVPTLIFACENDSIAPVNSSALPIYDSMSRNAKQFLEINGGSHSCANSGNSNQALIGKKGVAWMKRFMDNDTRYSTFACENPNSTAVSDFRTANCS | upper band

Source: the PETadex activity labels (doi:10.1021/acscatal.9b00568)
